Catalogue of molecules with associated half-life
EXPERIMENTAL DETAILS: Stability in rat brain homogenate assessed as half life
Type: ADME, tissue-based
ENDPOINT NAME: half-life

[[record]]
sample_smiles = "CN(C)CCc1c[nH]c2ccccc12"
readout_value = "0.085 h"

[[record]]
sample_smiles = "COc1ccc2[nH]cc(CCN3CCC3)c2c1"
readout_value = "> 4.82 h"

[[record]]
sample_smiles = "Oc1cccc2[nH]cc(CCN3CCC3)c12"
readout_value = "2.91 h"

[[record]]
sample_smiles = "COc1ccc2[nH]cc(CCN(C)C)c2c1"
readout_value = "0.24 h"

[[record]]
sample_smiles = "CN(C)CCc1c[nH]c2cccc(O)c12"
readout_value = "1.91 h"

[[record]]
sample_smiles = "c1ccc2c(CCN3CCC3)c[nH]c2c1"
readout_value = "> 4.82 h"

